system: Saccharomyces cerevisiae; test: protein stability index of tFT-peptide fusion (C-terminal peptide) (PSI (0-1 scale)); higher = more stable (slower turnover); settings: genetic background: wild type; temperature: 30 C;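 further: PSI is a weighted mean of sequencing reads over stability bins, variants kept only with over 10 reads, mCherry proximal and sfGFP distal, peptide attached via GGGS linker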
Parameter protein stability index: see the listing below.

[
  {
    "Sequence string": "GRFKLCWWCCGV",
    "protein stability index": 0.724
  },
  {
    "Sequence string": "GLRLGRVWVGGW",
    "protein stability index": 0.665
  },
  {
    "Sequence string": "QVFTLFPASYPL",
    "protein stability index": 0.688
  },
  {
    "Sequence string": "LVFGGRMRVYRP",
    "protein stability index": 0.678
  },
  {
    "Sequence string": "NHRANKIRKCKD",
    "protein stability index": 0.63
  },
  {
    "Sequence string": "PPHPRTPPATPP",
    "protein stability index": 0.601
  },
  {
    "Sequence string": "SKYVVQSENITG",
    "protein stability index": 0.699
  },
  {
    "Sequence string": "PWPLPLPPSSLP",
    "protein stability index": 0.684
  },
  {
    "Sequence string": "AGSSIPLPASRA",
    "protein stability index": 0.705
  },
  {
    "Sequence string": "SPPPPTPPLSPP",
    "protein stability index": 0.669
  },
  {
    "Sequence string": "RRVGSGGLEGIG",
    "protein stability index": 0.528
  },
  {
    "Sequence string": "KKHKKEDNKEKK",
    "protein stability index": 0.708
  },
  {
    "Sequence string": "TLDNEKKKKRNT",
    "protein stability index": 0.674
  },
  {
    "Sequence string": "RKCMSNSKNNNE",
    "protein stability index": 0.669
  },
  {
    "Sequence string": "DVLGLSSRPFRV",
    "protein stability index": 0.665
  },
  {
    "Sequence string": "GGGGGGGSRTGA",
    "protein stability index": 0.691
  },
  {
    "Sequence string": "VTLRLCGQSVVV",
    "protein stability index": 0.585
  },
  {
    "Sequence string": "GGGRCSGDGDRG",
    "protein stability index": 0.708
  },
  {
    "Sequence string": "CILYLSWIIFRA",
    "protein stability index": 0.146
  },
  {
    "Sequence string": "EGKNEFINGTTT",
    "protein stability index": 0.696
  },
  {
    "Sequence string": "EAGAKEWGAKQT",
    "protein stability index": 0.701
  },
  {
    "Sequence string": "LGLGPKNLSYSE",
    "protein stability index": 0.676
  },
  {
    "Sequence string": "GPTPAPSASRCF",
    "protein stability index": 0.611
  },
  {
    "Sequence string": "LPTVSRPGALIC",
    "protein stability index": 0.253
  },
  {
    "Sequence string": "PFRSAYYLLFLL",
    "protein stability index": 0.205
  },
  {
    "Sequence string": "QKKNQNKQEQKL",
    "protein stability index": 0.683
  }
]
